System: SK-OV-3
Protocol Notes: NCI tumour cell line growth inhibition, 48 h
Activity calls are given as the source filed them. Cut-off read from the data, not from the text of the source: active = GI50 up to about 1.1 µM and inactive = higher.
Outcomes: active, inactive

>  <Compound>
COC(=O)Cc1cc2c(cc1C(=O)c1ccc(N)cc1)OCO2

>  <Classification>
inactive

$$$$
>  <Compound>
Cc1c(-c2ccccc2)c(C#N)c2nnn(-c3ccc([N+](=O)[O-])cc3)c(=O)n12

>  <Classification>
inactive

$$$$
>  <Compound>
CC(C)(C)C1CCN(C(=O)c2ccccc2)CC1

>  <Classification>
inactive

$$$$
>  <Compound>
COc1ccc(N2C(=O)C3c4[nH]c5cccc(C)c5c4C4CCC(C(C)(C)C)CC4C3C2=O)cc1 (centres undefined)

>  <Classification>
inactive

$$$$
>  <Compound>
Cc1nn(C(=O)c2ccccc2O)c2c1C(c1ccc(O)cc1)SC(=N)N2 (centres undefined)

>  <Classification>
inactive

$$$$
>  <Compound>
C/C(=C1/N=C(c2cc([N+](=O)[O-])ccc2Cl)N(c2ccc(Br)cc2)C1=O)c1ccc(N(CCC#N)CCC#N)cc1C

>  <Classification>
inactive

$$$$
>  <Compound>
C=CCc1cccc2cc(C(=O)NC3CCCCC3)c(=N)oc12

>  <Classification>
inactive

$$$$
>  <Compound>
C=C1C(O)C2(O)OCC34C(CC5C(C)=CC(=O)C(O)C5(C)C23)OC(=O)C(OC(=O)C/C=C(\C)CCCCC)C14 (centres undefined)

>  <Classification>
active

$$$$
>  <Compound>
C[N+](C)(C)/N=C\c1ccc(O)c(O)c1

>  <Classification>
inactive

$$$$
